measured target: 4-1BB (CD137) extracellular portion (Mus musculus)
Sequence: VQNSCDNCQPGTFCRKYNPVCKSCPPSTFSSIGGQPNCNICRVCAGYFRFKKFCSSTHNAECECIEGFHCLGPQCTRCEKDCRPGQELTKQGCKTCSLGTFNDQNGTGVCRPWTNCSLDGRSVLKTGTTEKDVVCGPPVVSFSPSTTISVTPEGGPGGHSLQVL
experiment description: filter
experimental parameters: 2'-F pyrimidines; round 12 pool
parameter: Kd (nM)
Numeric answer only, unit nM assumed.

Form: sequence = GGGAGAGAGGAAGAGGGAUGGGNNNNNNNNNNNNNNNNNNNNNNNNNNNNNNNNNNNNNNNNCAUAACCCAGAGGUCGAUAGUACUGGAUCCCCCC [mouse 4-1BB selection round 12 pool] ; Kd = 50
